meta.source: patent US5508385A

Target Desc: human serum kallikrein (Homo sapiens, UniProt P03952)
Construct: purchased Kabi Co., Ltd
Sequence (P03952 391-638 limits assumed): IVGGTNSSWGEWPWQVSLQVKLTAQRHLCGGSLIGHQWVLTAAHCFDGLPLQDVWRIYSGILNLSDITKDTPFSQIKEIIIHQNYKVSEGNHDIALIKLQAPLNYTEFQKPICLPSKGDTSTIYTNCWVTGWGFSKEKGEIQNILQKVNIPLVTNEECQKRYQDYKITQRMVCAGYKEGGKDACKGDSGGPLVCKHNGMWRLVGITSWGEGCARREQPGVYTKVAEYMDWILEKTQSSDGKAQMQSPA
Sequence (P03952 20-390 partner limits assumed): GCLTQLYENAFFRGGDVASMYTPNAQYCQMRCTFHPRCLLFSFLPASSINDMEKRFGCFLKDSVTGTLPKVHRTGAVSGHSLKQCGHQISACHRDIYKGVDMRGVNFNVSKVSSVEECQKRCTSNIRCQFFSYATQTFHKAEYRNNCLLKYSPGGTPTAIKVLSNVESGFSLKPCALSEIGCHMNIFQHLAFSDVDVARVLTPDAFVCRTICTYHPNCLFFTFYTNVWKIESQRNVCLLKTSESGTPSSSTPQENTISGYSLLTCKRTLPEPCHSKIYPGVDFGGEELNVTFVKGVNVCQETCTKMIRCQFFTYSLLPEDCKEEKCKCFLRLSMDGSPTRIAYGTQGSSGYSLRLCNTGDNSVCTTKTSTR
Method Summary: Inhibitory activity against kallikrein (synthetic substrate S-2302)
Type: biochemical
Condition Summary: Table 3; substrate S-2302, pH 8.0, 37° C.; read-out: IC50, kallikrein (Table 3)
Where a SMILES comes first, the peptide text is derived from it. [ ]: non-standard residue; d: D form. pGlu = O=C1CC[C@@H](C(=O)O)N1
Quantity Measured: pIC50
# pIC50: negative log10 of molar concentration; output just the value

Given the entry N=C(N)NCCC[C@@H](C=O)NC(=O)[C@@H]1CCCN1C(=O)[C@@H]1CCC(=O)N1 [Example 13] ([pGlu]-Pro-Arg-aldehyde) , what pIC50 was observed with human serum kallikrein (Homo sapiens, UniProt P03952)? 5.26

* * *

Where a SMILES comes first, the peptide text is derived from it. [ ]: non-standard residue; d: D form. pGlu = O=C1CC[C@@H](C(=O)O)N1
Quantity Measured: IC50 (nM)
Just the number in nM, nothing appended.

Given the entry N=C(N)NCCC[C@@H](C=O)NC(=O)[C@@H]1CCCN1C(=O)[C@@H]1CCC(=O)N1 [Example 13] ([pGlu]-Pro-Arg-aldehyde) , what IC50 was observed with urokinase (Homo sapiens)? 680

* * *

Where a SMILES comes first, the peptide text is derived from it. [ ]: non-standard residue; d: D form. pGlu = O=C1CC[C@@H](C(=O)O)N1
Quantity Measured: pIC50
# pIC50: negative log10 of molar concentration; output just the value

Given the entry N=C(N)NCCC[C@@H](C=O)NC(=O)[C@@H]1CCCN1C(=O)[C@@H]1CCC(=O)N1 [Example 13] ([pGlu]-Pro-Arg-aldehyde) , what pIC50 was observed with plasmin (Homo sapiens)? 5.85

* * *

Target Desc: thrombin (Bos taurus, UniProt P00735)
Where a SMILES comes first, the peptide text is derived from it. [ ]: non-standard residue; d: D form. pGlu = O=C1CC[C@@H](C(=O)O)N1
Quantity Measured: IC50 (µM)
Just the number in µM, nothing appended.

Which IC50 value is on record for N=C(N)NCCC[C@@H](C=O)NC(=O)[C@@H]1CCCN1C(=O)[C@@H]1CCC(=O)N1 [Example 13] ([pGlu]-Pro-Arg-aldehyde) ? 22

* * *

Target Desc: human serum kallikrein (Homo sapiens, UniProt P03952)
Construct: purchased Kabi Co., Ltd
Method Summary: Inhibitory activity against kallikrein (synthetic substrate S-2302)
Format: biochemical
Condition Summary: Table 2; substrate S-2302, pH 8.0, 37° C.; read-out: IC50 of Known Compound, Kallikrein
Quantity Measured: pIC50
# pIC50: negative log10 of molar concentration; output just the value

Which pIC50 value is on record for CC(=O)N[C@@H](CC(C)C)C(=O)N[C@@H](CC(C)C)C(=O)N[C@H](C=O)CCCNC(=N)N [Example A1, acetyl-L-leucyl-L-leucyl-L-argininal, reference compound] ? 5.16
